The measured values listed here are drawn from ChEMBL document CHEMBL4513216.

Assay: Toxicity liver stage against HepG2, at 10uM
Format: cell-based
Set-up: test concentration 10 uM, cell line HepG2-A16-CD81EGFP
Conditions: human, HepG2-A16-CD81EGFP cells; read-out: INHIBITION
RECORDED METRIC: cytotoxicity at 10 µM (%)
The figure you give is taken to be in %; do not add the unit.

In the examples that follow, each entry is paired with its recorded cytotoxicity at 10 µM.
Cc1noc(C)c1-c1nc(C2CCCN(C(=O)C(C)C)C2)ccc1CO (centres undefined) : 0.983
CC(C)CN1C[C@@H]2CN(C(=O)c3cccn3C)C[C@@H]2C1=O : -111
O=c1cc(Cn2ccnc2)nc2n1CCCN(S(=O)(=O)C1CC1)C2 : 7.95
COC(=O)CCC(=O)N1CCc2nc(C(=O)N(C)C)sc2CC1 : 18.7
Cc1ccc(CN2CCCC3(CCCN3S(C)(=O)=O)C2)s1 (centres undefined) : -97.9
COC1COC2(CCN(CC3CC3)CC2)C1 (centres undefined) : -103
Cc1ccc(N2CCO[C@H]3CN(Cc4ccoc4)C[C@H]32)nn1 : -70.7
COCC(=O)N1CCC2(C1)c1ccccc1S(=O)(=O)N2CCC(C)C (centres undefined) : -4.26
O=C(CSc1ccc2c(c1)OCCO2)NS(=O)(=O)c1ccccc1Cl : -4.46
COc1cccc(S(=O)(=O)CCN2CCC3(CC2)OCCO3)c1 : 4.62

query: Sample `Cn1cc(-c2cnc(N3CCCC3)nc2)cc1C(=O)N1CCOCC1` — what was its cytotoxicity at 10 µM?
result: -3.87
